Assay: probe aLAP1 signal on lysate-treated microarray – cell lysate, small-molecule microarray, COS7 lysate, primary screen (AID 1124);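 also: lysate comes from COS7 cells expressing LAP1 and is applied at 0.3 µg/mL; score merges spot fluorescence near 667 nm with signal-to-noise over triplicate slides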
Conditions: probe aLAP1, fluorescence, higher = more signal
readout.type: composite z-score
Kindly provide the number alone.

Completed entries (count: 4):
{"compound": "COCCOC(=O)N1C(=O)[C@@]2(c3cc(C#CCCO)ccc31)[C@H](C(N)=O)[C@H]1C(=O)O[C@H](c3ccccc3)[C@H](c3ccccc3)N1[C@@H]2c1ccccc1OCCO", "composite z-score": 0.45}
{"compound": "C=CCC(OC(C)=O)[C@@H]1[C@@H](N(Cc2ccc(-c3cccc(C(F)(F)F)c3)o2)C(=O)Cc2ccc(F)cc2)c2cc(OCCCO)ccc2N1C(=O)Cc1ccc2ccccc2c1 (some centres not stated)", "composite z-score": -0.169}
{"compound": "N#Cc1ccc(NN2C(C(O)C3CC=CCC3)C=CC3C(=O)N(c4ccccc4)C(=O)C32)cc1 (configuration not stated)", "composite z-score": 0.452}
{"compound": "Cc1ccc(C(C)CC(O)C2C=CC3C(=O)N(C)C(=O)C3N2Nc2ccccc2)o1 (configuration not stated)", "composite z-score": 0.0421}

Query block: Using the record for CCCCC(O)C1C=CC2C(=O)N(c3ccccc3)C(=O)C2N1Nc1ccc(C#N)cc1 (configuration not stated) , report its composite z-score.
Result block: 1.23

Query block: Here is the next compound: CCOC(=O)C1=CCC(c2cc3ccccc3[nH]2)N(CCN2CC(C(=O)OCC)=CCC2c2cc3ccccc3[nH]2)C1 (configuration not stated)
Result block: 0.674

Query block: Here is the next compound: COc1ccc([Si](C)(C)[C@@H]2[C@@H](CC(=O)N3CCC[C@H]3CO)O[C@]3(C(=O)N(Cc4cccc(N5CCCCC5=O)c4)c4ccccc43)[C@H]2C)cc1
Result block: 0.433

###

Test: optical density change of DRC41 E. coli – strain DRC41, OD650, 24 h, E. coli filamentation project, primary screen (AID 1093);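 also: MC1000 strain lacking acrAB efflux and sulA so SOS filamentation is blocked; test concentration not given here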
Conditions: E. coli DRC41 growth, higher = more signal, called active from +8 up or from −8 down
readout.type: z-score
Kindly provide the number alone.

Completed entries (count: 2):
{"compound": "CN(C)CCCC[C@@H]1NC(=O)[C@@H]2C[C@H](C(=O)NCCCCCN)[C@H](c3cccc(OCCO)c3)N2C1=O", "readout.type": "z-score", "result": 2.65}
{"compound": "COc1ccc([Si](C)(C)[C@H]2[C@H](CC(=O)N3CCC[C@H]3CO)O[C@@]3(C(=O)N(Cc4ccc(N5CCCCC5=O)cc4)c4ccccc43)[C@@H]2C)cc1", "readout.type": "z-score", "result": 2.32}

Please examine the following record next.
Query block: Using the record for C=CCC(OC(C)=O)[C@@H]1[C@@H](N(Cc2cc3ccccc3o2)C(=O)Cc2ccc(OC)cc2)c2cc(OCCCO)ccc2N1C(=O)c1ccc2ccccc2n1 (stereo partly drawn) , report its z-score.
Result block: 1.03

###

Target: Alpha-bungarotoxin (Bungarus multicinctus) (UniProt P60615)
Sequence (P60615 whole entry, looked up): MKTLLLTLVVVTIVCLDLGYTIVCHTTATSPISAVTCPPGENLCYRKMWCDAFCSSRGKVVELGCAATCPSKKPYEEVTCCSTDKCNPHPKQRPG
Experiment: compounds binding labelled alpha-BTX control protein – biochemical, small-molecule microarray, Alexa647 label, 635/667 nm fluorescence, artefact control for SMM control protein annotation, profiling panel (AID 1117)
Settings: alpha-BTX-A647 binding fluorescence, higher = more signal
Quick list: composite z-score per entry.
Kindly provide the number alone.

{"compound": "CCN(CC)c1ccc(N2CC=CC34O[C@@H]5C=CCCOC(=O)C5[C@H]3C(=O)N(C(C)CO)[C@@H]4C2=O)cc1 (stereo partly drawn)", "composite z-score": -0.973}
{"compound": "COC(=O)[C@@]1(Cc2ccccc2)[C@H]2c3cc(C(=O)N(C)C)n(CCO)c3C[C@H]2CN1C(=O)c1ccccc1", "composite z-score": 0.723}
{"compound": "O=C1O[C@@H](c2ccccc2)[C@@H](c2ccccc2)N2[C@@H](c3ccc(OCCO)cc3)[C@]3(C(=O)Nc4ccc(C#CC5(O)CCCCCC5)cc43)[C@@H](C(=O)O)[C@H]12", "composite z-score": 0.987}

Query block: Using the record for COc1ccc([Si](C)(C)[C@@H]2[C@@H](CC(=O)N3CCC[C@H]3CO)O[C@]3(C(=O)N(Cc4ccc(N5CCOC5=O)cc4)c4ccccc43)[C@H]2C)cc1 , report its composite z-score.
Result block: 0.931

Query block: Here is the next compound: COC(=O)[C@@]1(Cc2ccc(OC)cc2)[C@H]2c3cc(C(=O)N4CCCC4)n(Cc4ccc(Cl)c(C(F)(F)F)c4)c3C[C@H]2CN1C(=O)c1ccccc1
Result block: 1.62

Query block: Here is the next compound: CC(C)=CCCC=C(C)C(O)C1C=CC2C(=O)N(c3ccccc3)C(=O)C2N1Nc1ccc(C#N)cc1 (stereo not drawn)
Result block: 0.82

Query block: Here is the next compound: COc1ccc([Si](C)(C)[C@H]2[C@H](CC(=O)N3CCC[C@H]3CO)O[C@@]3(C(=O)N(Cc4ccc(N5CCCCC5=O)cc4)c4ccccc43)[C@@H]2C)cc1
Result block: 1.62

Query block: Here is the next compound: CC(C)=C1C(=O)C(c2ccccc2)=C2CN3C(=O)N(CCc4ccccc4)C(=O)[C@]3(C)[C@H]21
Result block: 0.196

###

Quick list: composite z-score per entry.
Assay: probe aInhba binding on compound microarray – biochemical, small-molecule microarray, 635/667 nm fluorescence, primary screen (AID 1148);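 also: score merges 667nm spot fluorescence with signal-to-noise for antibody binding to printed compounds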
Details: higher = more signal
Kindly provide the number alone.

{"compound": "COCCOC(=O)N1C(=O)[C@@]2(c3cc(C#CCCO)ccc31)[C@H](c1ccc(OCCO)cc1)N1[C@H](c3ccccc3)[C@H](c3ccccc3)OC(=O)[C@H]1[C@@H]2C(=O)N1CCCCCCC1", "result": 1.48}
{"compound": "CC=CC(O)C1C=CC2C(=O)NC(=O)C2N1Nc1ccc(Cl)cc1Cl (centres undefined)", "result": -0.176}
{"compound": "Cc1ccc(S[C@]2(C(=O)NCCCN(C)C)CC(=O)N(Cc3ccccc3C(F)(F)F)[C@@H]2c2ccc(CO)cc2I)cc1", "result": 0.189}

Please examine the following record next.
Query block: Using the record for C=CCOC(=O)[C@@H]1[C@H]2C(=O)O[C@H](c3ccccc3)[C@H](c3ccccc3)N2[C@H](c2ccc(OCCOC(=O)[C@H]3C[C@H]4C(=O)NCC(=O)N4[C@H]3c3cccc(OCCO)c3)cc2)[C@@]12C(=O)Nc1ccc(I)cc12 , report its composite z-score.
Result block: 0.0228

###

Molecular target: E3 ubiquitin-protein ligase XIAP (Homo sapiens) (UniProt P98170)
Sequence (P98170 whole entry, looked up): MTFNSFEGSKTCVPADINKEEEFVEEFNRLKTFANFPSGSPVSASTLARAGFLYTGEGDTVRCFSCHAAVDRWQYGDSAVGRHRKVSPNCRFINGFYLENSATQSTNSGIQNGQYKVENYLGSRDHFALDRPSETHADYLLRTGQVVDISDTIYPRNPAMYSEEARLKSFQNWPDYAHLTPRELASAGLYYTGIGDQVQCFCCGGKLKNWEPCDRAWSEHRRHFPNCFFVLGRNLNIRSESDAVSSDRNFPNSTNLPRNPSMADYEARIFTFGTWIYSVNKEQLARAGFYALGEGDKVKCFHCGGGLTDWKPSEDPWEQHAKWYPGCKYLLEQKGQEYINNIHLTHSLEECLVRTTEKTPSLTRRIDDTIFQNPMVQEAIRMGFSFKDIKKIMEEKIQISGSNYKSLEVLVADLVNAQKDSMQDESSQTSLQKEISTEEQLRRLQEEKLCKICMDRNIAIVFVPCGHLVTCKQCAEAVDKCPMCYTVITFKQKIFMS
Experiment: small molecules binding XIAP protein – biophysical, small-molecule microarray, fluorescence 635 nm, primary screen (AID 1181);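 also: score merges 667 nm emission and signal to noise over triplicate slides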
Conditions: higher = more signal
Quick list: composite z-score per entry.
Kindly provide the number alone.

Completed entries (count: 3):
{"compound": "COC(=O)[C@@]1(Cc2ccc(F)cc2)[C@H]2c3cc(C(=O)N4CCCC4)n(Cc4ccccn4)c3C[C@H]2CN1C(=O)c1ccccc1", "composite z-score": 0.0945}
{"compound": "O=C1N(CCS(=O)(=O)c2ccccc2)c2ccccc2C[C@]12N=C(c1ccc(OCCCO)cc1)O[C@@H]2c1ccccc1", "composite z-score": 0.311}
{"compound": "CCCCCC1=C2CNC(Cc3ccccc3)(C(=O)OC)C=C2C(C)C1=O (centres undefined)", "composite z-score": -0.138}

Please examine the following record next.
Query block: API: value(readout= composite z-score, system= E3 ubiquitin-protein ligase XIAP (Homo sapiens) (UniProt P98170), query= CC[C@@H]1C=C(C(=O)O)[C@H](c2ccc(OC)cc2)N1S(=O)(=O)c1ccc(C)cc1 )
Result block: -0.0286

###

Quick list: composite z-score per entry.
Target: Fibroblast growth factor 2 (Homo sapiens)
Experiment: basic fibroblast growth factor binding to printed compounds – biochemical, small-molecule microarray, 635/667 nm fluorescence, primary screen (AID 1133)
Details: FGF2, fluorescence 635/667, higher = more signal
Kindly provide the number alone.

Completed entries (count: 3):
{"molecule": "Cc1ccc(S[C@]2(C(=O)NCCCN(C)C)CC(=O)N(Cc3ccccc3C(F)(F)F)[C@@H]2c2ccc(CO)cc2I)cc1", "result": -0.635}
{"molecule": "C=CCC(OC(C)=O)[C@@H]1[C@@H](N(Cc2cc3ccccc3o2)C(=O)Cc2ccc(OC)cc2)c2cc(OCCCO)ccc2N1C(=O)c1ccc2ccccc2n1 (some centres undefined)", "result": 0.0376}
{"molecule": "C=C(CCCC)/C(=C/C[C@H](OC(=O)c1ccncc1)c1ccc(OCCO)cc1)c1cnc2ccccc2c1", "result": 1.02}

Query block: API: value(readout= composite z-score, system= Fibroblast growth factor 2 (Homo sapiens), query= C=CCC(OC(C)=O)[C@@H]1[C@@H](N(Cc2cccc3ccccc23)C(=O)Cc2ccc(OC)cc2)c2cc(OCCCO)ccc2N1C(=O)c1ccc2ccccc2c1 (some centres undefined) )
Result block: -0.0926

###

Assay: probe aShh binding to arrayed compounds – biochemical, biotinylated probe, 635/667 nm fluorescence, primary screen (AID 1114);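 also: probe is biotin-labelled aShh protein from a stem cell growth factor screen; measures binding of labelled protein to compounds printed on the slide; score merges feature fluorescence at 667 nm with signal-to-noise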
Details: small-molecule microarray, higher = more signal
Binary classification by composite z-score, with 0.2 as an inclusive lower bound for 1.0; all other cases are 0.0.

Query block: Dear colleague, could you confirm whether N#Cc1ccc(C(O)C2C=CC3C(=O)NC(=O)C3N2Nc2ccc(Cl)cc2Cl)cc1 (stereo unspecified) has composite z-score at or above 0.2?
Result block: 1.0
